# Tested on: SK-MEL-28
# method_notes: NCI tumour cell line growth inhibition, 48 h
Calls of active or inactive are those of the source. Rule as the data show it: active = GI50 up to about 1.1 µM and inactive = higher.
Exercise: for every item that follows, state its recorded GI50.

Reported GI50 for N#CCC12CC=CCC1=C(O)C(=O)c1ccc(O)cc12 (stereo unspecified) : what is it?
> 100 µM (inactive)

Reported GI50 for C[C@@H]1OC(=O)C[C@H]2CC(=O)N(CCC3CN(C(=O)OCc4ccccc4)c4ccccc43)C[C@@H]21 (stereo partly specified) : what is it?
> 100 µM (inactive)

Reported GI50 for N=c1oc2cc(O)ccc2cc1C(=O)Nc1cccc2ccccc12 : what is it?
6.34 µM (inactive)

Reported GI50 for CC(Nc1cccc(Cl)c1)c1ccncc1 (stereo unspecified) : what is it?
> 100 µM (inactive)

Reported GI50 for CNc1nc(N)c(N=O)c(Nc2ccc(Br)cc2)n1 : what is it?
> 100 µM (inactive)

Reported GI50 for O=C1C2C(C(=O)N1c1ccccc1)C1c3ccccc3C2C2C(=O)N(c3ccccc3)C(=O)C21 (stereo unspecified) : what is it?
26.2 µM (inactive)

Reported GI50 for O=C1c2ccccc2C2(c3ccc(Cl)cc3)NCc3ccccc3CN12 (stereo unspecified) : what is it?
25.2 µM (inactive)

Reported GI50 for C=C1C(=O)OC2/C=C(\C=O)CC/C=C(\C)C(O)C[C@@H]12 (stereo partly specified) : what is it?
4.42 µM (inactive)

Reported GI50 for Cc1ccccc1/C=C/c1csnn1 : what is it?
> 100 µM (inactive)

Reported GI50 for CC1=NN(c2cccc(Cl)c2)C(=N/c2nc3ccccc3s2)/C1=C\c1cccs1 : what is it?
36.2 µM (inactive)

Reported GI50 for COC(=O)C[C@H](COCc1ccccc1)NC(=O)C[C@H](COCc1ccccc1)NC(=O)C[C@H](COCc1ccccc1)NC(=O)OC(C)(C)C : what is it?
73.1 µM (inactive)

---

# Test system: Malme-3M
# method_notes: NCI tumour cell line growth inhibition, 48 h
The source made the active and inactive calls. No stated cut-off is given here; in the data, active = GI50 up to about 1.1 µM and inactive = higher.
Exercise: for every item that follows, state its recorded GI50.

Reported GI50 for CCOC(=O)C(=O)Nc1c(CC)cccc1C(C)C : what is it?
> 100 µM (inactive)

Reported GI50 for Nc1nc(N)c2cc(-c3cc4ccccc4[nH]3)ccc2n1 : what is it?
16 µM (inactive)

Reported GI50 for O=C(O)[C@H](NS(=O)(=O)c1ccc2ccccc2c1)c1ccccc1 : what is it?
> 100 µM (inactive)

Reported GI50 for NC1=Nc2ccccc2Sc2nncn21 : what is it?
> 100 µM (inactive)

Reported GI50 for COc1ccc([C@H]2CC3C(=O)N(c4ccc(OC)cc4)C(=O)C3c3[nH]c4ccccc4c32)cc1 (stereo partly specified) : what is it?
36.1 µM (inactive)

Reported GI50 for O=C1C2C3C=CC(C2C(=O)N1CO)C1C2C(=O)N(CO)C(=O)C2C31 (stereo unspecified) : what is it?
> 100 µM (inactive)

Reported GI50 for CSc1c(C#N)c(O)n(-c2ccc(C)cc2)c(=O)c1C#N : what is it?
> 100 µM (inactive)

Reported GI50 for Cn1cnc([N+](=O)[O-])c1Sc1nc(N)nc2c1ncn2[C@H]1C[C@H](O)[C@@H](CO)O1 : what is it?
5.26 µM (inactive)

Reported GI50 for NNC(=S)N/N=C(\c1nc2ccc(Cl)cc2nc1O)C(O)c1cccc([N+](=O)[O-])c1 (stereo unspecified) : what is it?
> 100 µM (inactive)

Reported GI50 for c1ccc(NNN2NC(c3ccccc3)C2c2ccccc2)cc1 (stereo unspecified) : what is it?
28.9 µM (inactive)

Reported GI50 for CCOC(=O)COc1cc(-c2ccccc2)nc2cc(F)ccc12 : what is it?
> 100 µM (inactive)
